Below, each of the molecules is paired with its reported IC50 value.
# testTarget: LiTryS (Leishmania infantum trypanothione synthetase) (Leishmania infantum, UniProt A4I2Z3)
# Sequence (A4I2Z3 1-652): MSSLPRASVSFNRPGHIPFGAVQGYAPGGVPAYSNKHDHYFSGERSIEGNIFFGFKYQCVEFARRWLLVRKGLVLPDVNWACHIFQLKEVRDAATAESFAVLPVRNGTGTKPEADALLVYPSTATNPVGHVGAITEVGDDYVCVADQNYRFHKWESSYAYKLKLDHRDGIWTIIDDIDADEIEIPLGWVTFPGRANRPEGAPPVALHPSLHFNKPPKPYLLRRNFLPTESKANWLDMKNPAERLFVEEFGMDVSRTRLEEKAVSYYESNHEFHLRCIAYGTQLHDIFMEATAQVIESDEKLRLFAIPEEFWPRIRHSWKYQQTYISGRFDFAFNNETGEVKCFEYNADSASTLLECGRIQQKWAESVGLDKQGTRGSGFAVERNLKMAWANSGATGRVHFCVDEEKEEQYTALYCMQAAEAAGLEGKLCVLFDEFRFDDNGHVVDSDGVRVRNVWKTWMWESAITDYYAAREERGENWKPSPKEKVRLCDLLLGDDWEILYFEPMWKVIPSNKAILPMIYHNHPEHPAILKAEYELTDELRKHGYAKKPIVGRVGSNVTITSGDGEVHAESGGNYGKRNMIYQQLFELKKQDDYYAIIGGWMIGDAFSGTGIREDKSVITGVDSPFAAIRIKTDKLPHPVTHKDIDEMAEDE
# measurementProtocol: TryS activity end-point assay
# Type: biochemical
# conditionLabel: IC50 value, LiTryS, ± 2σ; ∼30 assumed for 50 ± 5% inhibition at 30 µM
attributeMeasured: IC50 (µM)

smilesInput: O=C(CN1C(=O)Cc2c([nH]c3ccc(Br)cc23)-c2ccc(Cl)cc21)N1CCCC1
resultUnit: µM
readoutNumber: 0.5

smilesInput: O=C(CN1C(=O)Cc2c([nH]c3ccc(Br)cc23)-c2ccc(Cl)cc21)N1CCOCC1
resultUnit: µM
readoutNumber: 2.8

smilesInput: O=C(CN1C(=O)Cc2c([nH]c3ccc(Br)cc23)-c2ccc(Cl)cc21)NCCN1CCNCC1
resultUnit: µM
readoutNumber: 0.6

smilesInput: O=C(CN1C(=O)Cc2c([nH]c3ccc(Br)cc23)-c2ccc(Cl)cc21)NCCO
resultUnit: µM
readoutNumber: 2.3
